Taken from the NIST ThermoML archive (doi:10.1016/j.jct.2009.07.006).

Reported mass density is given for each of the following compounds.
settings: 298.15 K; 11250 kPa; Liquid; Vibrating tube method
Form entry: value (kg/m3) — number only.

// worked examples, mass density included
1) Cc1ccncc1 [4-methylpyridine]
956.9
2) c1ccncc1 [pyridine]
985.1
3) Cc1ccccn1 [2-methylpyridine]
947.2

Req: Data request, read-out mass density, for Cc1cccnc1 [3-methylpyridine]
Resp: 959

====

details: 318.15 K; 39620 kPa; Liquid; Vibrating tube method
Measured mass density by item
Entry rule: numbers only, all in kg/m3.

1. Cc1ccccn1
947.9
2. Cc1ccncc1
957
3. Cc1cccnc1
959.1

Note: attention shifts to another entry.
Req: Request the reported mass density associated with "c1ccncc1"
Resp: 984.4

====

details: 308.15 K; 30500 kPa; Liquid; Vibrating tube method
Numbers after ± are expanded uncertainties.
Readout: mass density

Recorded results for 2 compounds are shown here.
1. c1ccncc1 [pyridine]
987.8 ± 0.2 kg/m3
2. Cc1ccncc1 [4-methylpyridine]
959.9 ± 0.3 kg/m3

Req: Would you kindly share the measured mass density for Cc1ccccn1 [2-methylpyridine] ?
Resp: 950.8 ± 0.8 kg/m3

Req: For the compound shown here, Cc1cccnc1 [3-methylpyridine] , give the reported mass density.
Resp: 962 ± 0.3 kg/m3

====

This listing pairs compounds with measured mass density.
conditions: 308.15 K; 18340 kPa; Liquid; Vibrating tube method
Use kg/m3 as the unit, but write only the number.

Here's what some known entries look like.
1) Cc1ccccn1
943.2
2) Cc1ccncc1
952.8
3) Cc1cccnc1
954.8

Req: Requested read-out: mass density. Entry: "c1ccncc1"
Resp: 980.3

====

conditions: 318.15 K; 14290 kPa; Liquid; Vibrating tube method
Readout: mass density (kg/m3)
Give your result in kg/m3 as a bare value.

Here is how some compounds turned out for mass density.
1. c1ccncc1
968.1
2. Cc1ccncc1
941.6
3. Cc1cccnc1
943.6

Consider the additional compound presented here.
Req: # query: mass density of entry "Cc1ccccn1"
Resp: 931.6

====

details: 318.15 K; 8210 kPa; Liquid; Vibrating tube method
// reported mass density for each item listed
Write it as a number; the unit kg/m3 goes unstated.

Some entries whose results are on file:
1) c1ccncc1 [pyridine]
963.7
2) Cc1ccncc1 [4-methylpyridine]
937.4
3) Cc1cccnc1 [3-methylpyridine]
939.4

Req: I have this compound here, Cc1ccccn1 [2-methylpyridine] , and I need its recorded mass density.
Resp: 927.3

====

settings: 308.15 K; 20370 kPa; Liquid; Vibrating tube method
Measured mass density, listed per entry for reference.
# number only, unit kg/m3 dropped from output

Examples with their reported mass density follow.
1) Cc1ccccn1
944.5
2) c1ccncc1
981.6
3) Cc1cccnc1
956.1

# context switch: different molecule, same mass density
Req: // lookup mass density for "Cc1ccncc1"
Resp: 954

====

Quick reference for mass density among some molecules
details: 328.15 K; 2130 kPa; Liquid; Vibrating tube method
Kindly provide the numeric value in kg/m3 only, without the unit symbol.

1. c1ccncc1
949.2

Req: Query: mass density; subject: "Cc1ccccn1"
Resp: 913.5

Req: Any idea what mass density was measured for "Cc1cccnc1" ?
Resp: 926.3

Req: Which mass density is reported for this molecule? "Cc1ccncc1"
Resp: 924.3
